Recorded values, source the domain aggregation screens of Martell et al. (2025).

Experiment: soluble fraction after stress (log2 fold change); higher = more stays soluble; pooled small domains, quantitative proteomics;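 further: 20 min heating vs room temperature control held 20 min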
Settings: stress: 75 degC
Reported soluble fraction (log2) is given for each of the following sequences.
Give your answer as a number; write no unit.

[[record]]
construct_sequence = "HMKPSKTDEAEYWLMERLEEGPQPAGDLIRIGEEFGYTPKILRDAGERFNMERYKDGLDHWMWKLPN"
val = -0.154

[[record]]
construct_sequence = "HMADLNFHQQIRSLPPEQQEILLLRFGQELTLRQIAQVTGVPLRTVQSRLRAALKKLKSQLEKEE"
val = -0.696

[[record]]
construct_sequence = "HMDDDAELLLKKLSAAGGELPFHDRSEPAEIEAAFGLSKSAFKRALGKLLKAGKVVKTQQGIQLK"
val = 0.162


Please find the next sequence below.
Identify measured soluble fraction (log2) associated with HMGVSLKEIQENLSLIDDAAQKLASGQGTVDDAVGMGNAGKDIYDNIEGYVSSPKEFINGVLSSV
-0.0252

----------
Reported soluble fraction (log2) is given for each of the following sequences.
Assay: soluble fraction after stress (log2 fold change); higher = more stays soluble; pooled small domains, quantitative proteomics
Settings: stress: 75 degC
Give your answer as a number; write no unit.

Worked examples follow.
[[record]]
construct_sequence = "HMPELSNNLDRDKVALKNFNESLKDGLTPAEAYANHLTNVSKAAQEAARQSNGLPVDIDKYHNSQLAASMA"
measure = "soluble fraction (log2)"
val = 0.378

[[record]]
construct_sequence = "HMNSFKIYPNPSSREVVRFNQAQDVKVYDTLGKLILSAKNTSAIDTKSFNTGIYFIKTANGLTKKLIV"
measure = "soluble fraction (log2)"
val = -0.886

[[record]]
construct_sequence = "HMKEVVKVTITPSEKLKSQYPDALVSIDGKFYDLGILNNPVEFYMDKDHKISIIWSTAELVESFRI"
measure = "soluble fraction (log2)"
val = -0.000631

[[record]]
construct_sequence = "HMFNLFPHLSVLRNITLAPQKVKGLNRSESNEIAMSLLERVGIPEQSDKFPSQLSGGQQQRVAIARALAM"
measure = "soluble fraction (log2)"
val = -0.502


Identify measured soluble fraction (log2) associated with HMLMKPQKTRDVLRYLKSIGWVRLRGGQGSHEIWGLPDGSIRAVIPAGHREISAGVLMQLKRAGVDVPTQW
-1.25

Identify measured soluble fraction (log2) associated with HMAAVPQPQRSETIVYIGGRKFYVHTVQAGETLYSIARLYGVSEQTLVANNPTMADVVKADQNVRIPVPA
-1.96

Identify measured soluble fraction (log2) associated with HMKKYLIIDAANEKIIFKIIDNNKTYTNDYENSRKNFDRFAVLLFNFLNKNMISFDTIDKAL
-0.118

Identify measured soluble fraction (log2) associated with HMKALHEEIAEKIQEQILRSNLAPGDKLDTELELAARYGVSRSTIRQALIQLESAGLIDRLHGRGTFVAD
0.59

----------
Experiment: soluble fraction after stress (log2 fold change); higher = more stays soluble; pooled small domains, quantitative proteomics
Conditions: stress: 75 degC
Cut-off -0.08 on soluble fraction (log2), inclusive. At or above means TRUE; below means FALSE.

[[record]]
construct_sequence = "HMGNYEEAILAFEAAIKIDPKNADAYRKLAEAYEKTGDEDAALRTLETGAEATGDRELADLAEKKRQELDA"
label = "TRUE"

[[record]]
construct_sequence = "HMGPLDIAQLKSDFLGGDAQLARRAWDQLATKAGDEGRDFLISSLGSSDPQIRNRVALGIHES"
label = "TRUE"

[[record]]
construct_sequence = "HMKSISMSKLRHLLQLYVQGRSKKLISEQTGIARNTLKKYIKEFSEAGLSLEALLALSDKELEDLFVK"
label = "FALSE"


Please indicate if the recorded soluble fraction (log2) for HMTLKVQLSEISKMVSLSYIAKKYFNKSQSWLSQRINGNTIHNKPAKFTSEELATLQFALKDIGNILNSTV meets or exceeds -0.08.
FALSE

Please indicate if the recorded soluble fraction (log2) for HMKLVESALSILEEAVDRDFHGNLGDAARYFDIPYQTIYSWLKSRKRVPSLRALEPVLEKLGVSFTT meets or exceeds -0.08.
FALSE

Please indicate if the recorded soluble fraction (log2) for HMDTSADEVKQLIASFVEQEDKRKPLSDQKIVELLAEKEQKISRRTVAKYRDALNIPSSSKRKRF meets or exceeds -0.08.
TRUE

Please indicate if the recorded soluble fraction (log2) for HMFHGEGVQANNIQAYIVLKMAAVNGAEDALDTADEVSEKMSREDLETATQVLGQIFRKYLMELQSA meets or exceeds -0.08.
FALSE

Please indicate if the recorded soluble fraction (log2) for HMSNSMISKDKAMSIALAKVSGATSSNIYIELEKDDGRYTYEGEINFNNKEYEFEIDAYTGNILKWEVDSI meets or exceeds -0.08.
FALSE

----------
Assay: soluble fraction after stress (log2 fold change); higher = more stays soluble; pooled small domains, quantitative proteomics
Settings: stress: 75 degC
Reported soluble fraction (log2) is given for each of the following sequences.
Give your answer as a number; write no unit.

Worked examples follow.
[[record]]
construct_sequence = "HMDLPDFTSRERDILARVVQGDSNERIAASLGVSVSTVKTHIGNILRKTGQTNRVRLIVWATRHL"
val = -2.58

[[record]]
construct_sequence = "HMNEYLPEAVQKLLEVMEYDIPYTSNELMERLGLKAKEGFRRNYLHPAMEMKLIQMTIPDKPNSRNQRYLR"
val = -2.13

[[record]]
construct_sequence = "HMEDPLGDLIGRIAAATGRPVQDIVAEVHRVVTDHFDGNLRVEAAAVILARKYGVAFEDKLSALQRSV"
val = 0.0325

[[record]]
construct_sequence = "HMRSVTLQTDREGDILYVDGKQIGVSPQRLELSYGVHTIRAERGEQHTEKELEVTETGGETVVTLGFG"
val = 0.375

[[record]]
construct_sequence = "HMKDLQHLVGEKGTTVTPLRPSGIALIKGSRYDVVSEGSFIQQGVAVEVIKVEGRRVVVSPLQED"
val = -0.722

[[record]]
construct_sequence = "HMLRVVSTRQAFDIVRGWADAHPQDPEHNKTLDELEELAKKEVWDDWSRTNEIAERLNALLVSIGANVRTA"
val = -0.961

[[record]]
construct_sequence = "HMSYPEIFQSLTEREQKIADMIAEHLSNKEIAEKMFLSEGTIKQYINQIYSKLQITGDIRNKRKQLIELFH"
val = -1.62

[[record]]
construct_sequence = "HMRVPQWLVDKIAAAGIDTHRSGPALKALAAKAGTPEQLDQAIARAKALRRRTGSTQSLNVGLLGSILEGT"
val = -0.345

[[record]]
construct_sequence = "HMTTGREGLIGAVGTVRQAIAPEGYVFVEGELWRAKSPAGPLEPGTTVRVIAIDGLTLTVMPAE"
val = -0.965

[[record]]
construct_sequence = "HMGAKEHLAGETLRMAVELLSEKQGIPAEQALIRFISSPVYDALYDLDTGMWTQGPTRLLEAFEALE"
val = -2.01


Identify measured soluble fraction (log2) associated with HMLADIGGRIADLRREVGLTQGELAEKADISVVHLSNIELGKKTPGLSTLIRIAEALDVATDWILQA
-1.38

Identify measured soluble fraction (log2) associated with HMKKAMIISTKRGTPAAELDKIIREFEAKGLSVTMIRGTDYNVFGLVGDTTVIDEKQVRANPYVENVQRV
-0.157

Identify measured soluble fraction (log2) associated with HMENVVESIYNKMVESITNGQWAAGSKIPTENELAKTYQVSRSSVRQAISRLKALGLLESRQGSGTVIKK
-0.0436

Identify measured soluble fraction (log2) associated with HMFIPGDSVRVHVKVVEGSNERIQMFEGVVIARQGSGVRENFTVRRISYGVGIERTFPVHSPRL
-0.226

Identify measured soluble fraction (log2) associated with HMKSSISKNWNPSKDAIEILTRAGIDQEFLENLIPEFVIYWIERSDVLISYNSKFIEHARLKWAQHTAEIQ
0.192

Identify measured soluble fraction (log2) associated with HMEVGKRIAEIRKENRMSQEQFGQLFHVTRQTVSNWENAKSYPDLQTLVKISELFEITMDELLK
-1.45

Identify measured soluble fraction (log2) associated with HMQNSYSVEDLALKAGLSVDTIRYYQGLDLIAPPQKNGRRAIYGDEHLSRLDEIKKLALEGFSLRQISLLK
-0.739

----------
Assay: soluble fraction after stress (log2 fold change); higher = more stays soluble; pooled small domains, quantitative proteomics
Details: stress: 75 degC
Reported soluble fraction (log2) is given for each of the following sequences.

[[record]]
construct_sequence = "HMHDLDALTGLSGEARSKVYEEGSVFVAGEMWSAKSDAVIPAGSSIRVVRREGFILVVEKDS"
val = -2.48

[[record]]
construct_sequence = "HMIALKNLREEKRMTQAELSKDLEISPSAIGMYEQGRRVPDVSTLKKISAYFNVSIDYLLGNSTSKDI"
val = -0.626

[[record]]
construct_sequence = "HMRGGKGTVPDVTGMDAAAAVRILEKAGMNVAYIRGAGFVAEQTPAAGTKLKKGDKAYITLSWK"
val = -0.622

[[record]]
construct_sequence = "HMLSLGIMEADMLKTGKHTISGISKATPEQRQKIDSDIEELKKKYPEKNITSKVENDNLIVESGVTAP"
val = 0.029

[[record]]
construct_sequence = "HMLGDIYISIPRAKLQAEEYGHSFKRELAFLAVHGFYHLLGYDHQTKEEEEVMFGKQEEVLAEFDIKR"
val = -0.0616

[[record]]
construct_sequence = "HMEGSVTVMVNGESVTMTGKQNYIFVDVFDWYSFDLSAGKGRAIATLVNGKEAEFSQPLANGDNIELYWKE"
val = -2.15


Identify measured soluble fraction (log2) associated with HMNPSIALHDWLQSSEFKGSINLFAAALGMNPRTVEAWVYGRSTPSRRFWAKLYQITNLSRFRL
-1.08

Identify measured soluble fraction (log2) associated with HMVIGKHSGSHTLVNDLAKRGITLDKEESATLLEMVRKAAVGLHRSISSDELYGLYKDMKSGQDPFEDS
0.139

Identify measured soluble fraction (log2) associated with HMERTQSIEAAREQLGEVTKDNVFETETLGALAILKENEPGEYAKIKADLKGKINMNDLERAVKKAAADQR
1.02

Identify measured soluble fraction (log2) associated with HMYIDANTALLAKRIQAKNGFLPLSDKSTAEEIYAEFGISKKAFKKALGALYKERLVRIGDEGVVWV
-2.46

Identify measured soluble fraction (log2) associated with HMAVRLADMAAEKIRKMIIENKFDAGEPLSEMRLAEMFNVSRTPIREAIAILEQEGLLTTVHGKGAFIS
-0.896

Identify measured soluble fraction (log2) associated with HMYSYNKEEVGKRIKSIRQQKGLTQESFGELFGASKGNVATWEKGISLPNASRLREIADLVSITVEELLYG
-0.735
